target.or.system: human RXFP1 (Homo sapiens)
assay.overview: hRXFP1 HEK293 cAMP assay (HTRF)
measurement.conditions: HEK293 cells stably expressing human RXFP1, 30 min at room temperature
quantity.measured: EC50 (nM)

{"compound": "COc1ccc(CCCO)cc1C(=O)N[C@H]1[C@@H](C(=O)NCC(C)(C)C)[C@H]2CC[C@@H]1/C2=C\\C1CC1", "EC50 / nM": 685}
{"compound": "COc1ccc(CCCn2cc(-c3ccccc3)nn2)cc1C(=O)N[C@@H]1C2CCC(/C2=C/C(F)(F)F)[C@@H]1C(=O)Nc1ccc(F)c(C(F)(F)F)c1 (some centres unmarked)", "EC50 / nM": 1270}
{"compound": "COc1ccc(C2CCCC(N3CC(F)(F)C3)C2)cc1C(=O)N[C@H]1[C@@H](C(=O)Nc2ccc(F)c(C(F)(F)F)c2)[C@H]2CC[C@@H]1/C2=C\\C(F)(F)F (some centres unmarked)", "EC50 / nM": 4960}

[a] COc1ccc(/C=C/C(=O)N2CCC(O)CC2)cc1C(=O)N[C@@H]1C2CCC(/C2=C/C(F)(F)F)[C@@H]1C(=O)Nc1ccc(F)c(C(F)(F)F)c1 (some centres unmarked)
[b] COc1ccc(C2CCCC(C(=O)O)C2)cc1C(=O)NC1C2CCC(/C2=C/C(F)(F)F)[C@@H]1C(=O)Nc1ccc(F)c(C(F)(F)F)c1 (some centres unmarked)
[c] COc1ccc(CCCNC[C@@H](O)C(F)(F)F)cc1C(=O)N[C@@H]1C2CCC(/C2=C/C(F)(F)F)[C@@H]1C(=O)Nc1ccc(F)c(C(F)(F)F)c1 (some centres unmarked)
[d] COc1ccc(C(=O)N2CCO[C@@H](CO)C2)cc1C(=O)N[C@H]1[C@@H](C(=O)Nc2ccc(F)c(C(F)(F)F)c2)[C@H]2CC[C@@H]1/C2=C\C1CC1
Exercise: Rank items: key EC50, increasing. Give the labels in the order specified.
Solution: a, d, b, c

* * *

target.or.system: UniProt Q9HBX9
assay.overview: hRXFP1 HEK293 cAMP assay (HTRF)
measurement.conditions: HEK293 cells stably expressing human RXFP1, 30 min at room temperature
pEC50: −log10 of the molar value.
quantity.measured: pEC50

Solved cases (4 shown):
{"molecule": "COc1ccc(C(C)(C)CCO)cc1C(=O)N[C@H]1[C@@H](C(=O)Nc2ccc(F)c(C(F)(F)F)c2)[C@H]2CC[C@@H]1/C2=C\\C(F)(F)F", "pEC50": 6.37}
{"molecule": "COc1ccc(CCCO)cc1C(=O)N[C@@H]1C2CCC(/C2=C/C2CCC2)[C@@H]1C(=O)Nc1ccc(F)c(C(F)(F)F)c1 (stereo partly drawn)", "pEC50": 7.35}
{"molecule": "COc1ccc(CCCCCC#N)cc1C(=O)NC1C2CCC(/C2=C/C(F)(F)F)[C@@H]1C(=O)Nc1ccc(F)c(C(F)(F)F)c1 (stereo partly drawn)", "pEC50": 6.99}
{"molecule": "COc1ccc(CC(C)CO)cc1C(=O)N[C@@H]1C2CCC(/C2=C/C(F)(F)F)[C@@H]1C(=O)Nc1ccc(F)c(C(F)(F)F)c1 (single isomer, unassigned) [Example 66]", "pEC50": 6.85}

[1] COc1ccc(COC2(C(=O)NCCO)CC2)cc1C(=O)N[C@@H]1C2CCC(/C2=C/C2CC2)[C@@H]1C(=O)Nc1ccc(F)c(C(F)(F)F)c1 (stereo partly drawn)
[2] COc1c(F)cc(C(=O)N2CC3(CC(O)C3)C2)cc1C(=O)N[C@H]1[C@@H](C(=O)Nc2ccc(F)c(C(F)(F)F)c2)[C@H]2CC[C@@H]1/C2=C\C1CCCC1
Exercise: Min pEC50? 1 | 2 Which one? Tell me its label.
Solution: 1

* * *

target.or.system: human RXFP1 (Homo sapiens, UniProt Q9HBX9)
Sequence (Q9HBX9 1-757): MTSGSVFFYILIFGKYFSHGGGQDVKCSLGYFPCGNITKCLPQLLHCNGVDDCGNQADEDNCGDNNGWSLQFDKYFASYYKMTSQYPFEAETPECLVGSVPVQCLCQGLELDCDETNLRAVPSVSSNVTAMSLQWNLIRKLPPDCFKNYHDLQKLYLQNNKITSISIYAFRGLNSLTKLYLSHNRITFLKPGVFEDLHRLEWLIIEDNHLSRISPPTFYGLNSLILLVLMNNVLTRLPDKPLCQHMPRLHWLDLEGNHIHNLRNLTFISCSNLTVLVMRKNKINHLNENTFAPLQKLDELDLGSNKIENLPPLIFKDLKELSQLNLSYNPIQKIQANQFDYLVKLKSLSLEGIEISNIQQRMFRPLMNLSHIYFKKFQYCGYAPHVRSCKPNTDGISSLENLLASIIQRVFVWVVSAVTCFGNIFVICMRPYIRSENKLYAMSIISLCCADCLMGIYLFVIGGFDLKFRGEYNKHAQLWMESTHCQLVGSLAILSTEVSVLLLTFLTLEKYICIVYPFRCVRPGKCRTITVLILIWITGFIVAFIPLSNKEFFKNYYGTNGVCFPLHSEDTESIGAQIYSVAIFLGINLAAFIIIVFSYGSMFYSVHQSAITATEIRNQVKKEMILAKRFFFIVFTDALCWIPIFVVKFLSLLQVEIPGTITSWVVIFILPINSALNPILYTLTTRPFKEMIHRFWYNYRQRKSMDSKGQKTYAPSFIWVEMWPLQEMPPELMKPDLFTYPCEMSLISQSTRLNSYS
assay.overview: hRXFP1 HEK293 cAMP assay (HTRF)
measurement.conditions: HEK293 cells stably expressing human RXFP1, 30 min at room temperature
quantity.measured: EC50 (nM)

# annotated cases, reported EC50 shown
{"compound": "COc1ccc(C(=O)N2CCN(CC(F)F)CC2)cc1C(=O)N[C@H]1[C@@H](C(=O)Nc2ccc(F)c(C(F)(F)F)c2)[C@H]2CC[C@@H]1/C2=C\\C1CC1 [Example 255]", "EC50 [nM]": 73.4}
{"compound": "COc1ccc(CCCC(F)F)cc1C(=O)NC1C2CCC(/C2=C/C2CCC2)[C@@H]1C(=O)Nc1ccc(F)c(C(F)(F)F)c1 (some centres unmarked) [Example 196]", "EC50 [nM]": 32}
{"compound": "COc1ccc(/C=C/C(=O)N2CC[C@H](O)C2)cc1C(=O)N[C@@H]1C2CCC(/C2=C/C(F)(F)F)[C@@H]1C(=O)Nc1ccc(F)c(C(F)(F)F)c1 (some centres unmarked) [Example 130]", "EC50 [nM]": 114}
{"compound": "COc1ccc(C(=O)NCCCO)cc1C(=O)N[C@H]1[C@@H](C(=O)Nc2ccc(F)c(C(F)(F)F)c2)[C@H]2CC[C@@H]1/C2=C\\C1CC1 [Example 229]", "EC50 [nM]": 183}
{"compound": "COc1ccc(CCCCO)cc1C(=O)N[C@@H]1C2CCC(/C2=C/C(F)(F)F)[C@@H]1C(=O)Nc1ccc(F)c(C(F)(F)F)c1 (some centres unmarked) [Example 98]", "EC50 [nM]": 111}
{"compound": "COc1ccc(C2CC3CC(O)CC32)cc1C(=O)N[C@H]1[C@@H](C(=O)Nc2ccc(F)c(C(F)(F)F)c2)[C@H]2CC[C@@H]1/C2=C\\C1CC1 (single isomer, unassigned) [Example 342]", "EC50 [nM]": 27.8}

[1] COc1ccc(C#C[C@H](C)O)cc1C(=O)N[C@@H]1C2CCC(/C2=C/C(F)(F)F)[C@@H]1C(=O)Nc1ccc(F)c(C(F)(F)F)c1 (some centres unmarked) [Example 71]
[2] COc1ccc(CCCCC(F)(F)F)cc1C(=O)NC1C2CCC(/C2=C/C2CCC2)[C@@H]1C(=O)Nc1ccc(F)c(C(F)(F)F)c1 (some centres unmarked) [Example 193]
Exercise: Between the entries labelled 1 and 2 , which has a larger EC50 value on record? Reply with the label of the item you choose.
Solution: 1

* * *

target.or.system: UniProt Q9HBX9
assay.overview: hRXFP1 HEK293 cAMP assay (HTRF)
measurement.conditions: HEK293 cells stably expressing human RXFP1, 30 min at room temperature
pEC50: −log10 of the molar value.
quantity.measured: pEC50

[a] COc1ccc(CN2O[C@H]3COC[C@H]3C2=O)cc1C(=O)N[C@H]1[C@@H](C(=O)Nc2ccc(F)c(C(F)(F)F)c2)[C@H]2CC[C@@H]1/C2=C\C1CC1
[b] COc1ccc(C2CCCC(NC(=O)C3CCOCC3)C2)cc1C(=O)N[C@@H]1C2CCC(/C2=C/C(F)(F)F)[C@@H]1C(=O)Nc1ccc(F)c(C(F)(F)F)c1 (single isomer, unassigned) [Example 50]
[c] COc1ccc(C#CCCCO)cc1C(=O)N[C@@H]1C2CCC(/C2=C/C(F)(F)F)[C@@H]1C(=O)Nc1ccc(F)c(C(F)(F)F)c1 (stereo partly drawn)
Exercise: Could you please sort these 3 entries by pEC50 from high to low? Give the order by naming the labels one after another as requested.
Solution: c, a, b
